- protocol-description: Quantitative High-Throughput drug screen in 47 multiple myeloma cell lines against the NCATS MIPE library collection: Karpas417_ECACC cell viability assay (AID 1918961)
- condition-notes: Karpas417 myeloma viability, CellTiter-Glo ATP luminescence, 48 h
Inconclusive results are not listed. Activity calls are given as the source filed them. The call rests on the fitted dose curve; in most records, active means well fitted cell-killing curve with a large enough effect; inconclusive means small, poorly fitted or top-dose-only effect, or effect the other way; inactive means no such curve, though single readings can be large or run the other way.
Please answer using one outcome listed in active, inactive

# example entries with known answers
NS(=O)(=O)c1cc(Cl)c(Cl)c(S(N)(=O)=O)c1 = inactive
CN1CC(=O)N2C(Cc3c([nH]c4ccccc34)[C@H]2c2ccc3c(c2)OCO3)C1=O (some centres undefined) = inactive
CN(C)CCOc1ccc(-c2nc(-c3ccc4c(c3)CCC4=NO)c(-c3ccncc3)[nH]2)cc1 = active

(Q) Answer briefly: the call reported for OC[C@H]1O[C@@H](O[C@H]2[C@@H](O)[C@@](O)(CO)O[C@@H]2CO)[C@H](O)[C@@H](O)[C@@H]1O in this assay.
(A) inactive

(Q) Called result for CN(C)S(=O)(=O)c1ccc2c(c1)C(=Cc1cc3c([nH]1)CCCC3)C(=O)N2
(A) active

----------
- protocol-description: qHTS of pediatric cancer cell lines to identify multiple opportunities for drug repurposing: Primary screen for Rh30 cells (AID 1347107); further: nearly all actives have a fitted effect of over 75% in size
- condition-notes: Rh30 rhabdomyosarcoma viability, CellTiter-Glo luminescence, 48 h; series mostly up to 46 µM
Records with an inconclusive call do not appear. Calls of active or inactive are those of the source. Calls come from the whole dose curve; as a rule, active = well fitted cell-killing curve with a large enough effect; inconclusive = small, poorly fitted or top-dose-only effect; inactive = no such curve, though single readings can be large or run the other way.
Just give me one of these, please: True (active), False (inactive)

See these solved cases before continuing.
c1cc(OCCN2CCCCC2)cc(-c2n[nH]c3ccc(-c4ncn[nH]4)cc23)c1 = False
O=C(O)CCNc1cc(N2CCc3ccccc3CC2)nc(-c2ccccn2)n1 = False
CO[C@@H]1C(N(C)C(=O)c2ccccc2)C[C@H]2O[C@]1(C)n1c3ccccc3c3c4c(c5c6ccccc6n2c5c31)C(=O)NC4=O (stereo not given in full) = False
CCCCC[C@H](O)C=C[C@H]1[C@H](O)CC(=O)[C@H]1CCCCCCC(=O)O = False
C=C1[C@H](n2cnc3c(=O)[nH]c(N)nc32)C[C@H](O)[C@H]1CO = False

(Q) I'd appreciate the recorded outcome for OC(c1cc(C(F)(F)F)nc2c(C(F)(F)F)cccc12)C1CCCCN1 (stereo not given) from this test.
(A) False

(Q) Dear colleague, could you share the recorded outcome for Cc1cnc(-c2cc(N3CCN(C(=O)CCS(C)(=O)=O)CC3)ncc2Cl)c(C)c1 when you have a moment?
(A) False

(Q) Give the logged outcome of this assay for the following compound: CN(C)CC[C@H](CSc1ccccc1)Nc1ccc(S(=O)(=O)NC(=O)c2ccc(N3CCN(Cc4ccccc4-c4ccc(Cl)cc4)CC3)cc2)cc1[N+](=O)[O-]
(A) True

(Q) Tell me the assay call for CC1(C)[C@H]2CC[C@]3(C)[C@@H](C(=O)C=C4[C@@H]5C[C@@](C)(C(=O)O)CC[C@]5(C)CC[C@]43C)[C@@]2(C)CC[C@@H]1O please.
(A) False

(Q) Returns: the outcome recorded for CN(C)CCOc1cc(-c2cn[nH]c2)ccc1NC(=O)C1COc2ccccc2O1 (stereo not given) in this assay.
(A) False

(Q) // return assay outcome for C[C@H](CCC(=O)O)[C@H]1CC[C@H]2[C@H]3[C@@H](CC[C@]12C)[C@@]1(C)CC[C@@H](O)C[C@H]1C[C@@H]3O
(A) False

(Q) What is the recorded call for this compound in the test? C[C@H](c1ccc(F)cc1CCCC(=O)O)N(c1cc(F)ccc1F)S(=O)(=O)c1ccc(Cl)cc1
(A) True

(Q) Dear all, I need the recorded test outcome for COc1cc(F)c(C(C)C)cc1-c1ccc(C(F)(F)F)cc1CN1C(=O)O[C@H](c2cc(C(F)(F)F)cc(C(F)(F)F)c2)[C@@H]1C , thank you.
(A) False

(Q) Any idea what this test logged for O=C(Nc1ncc(SCCN2CCCC2)s1)[C@]1(c2ccc(S(=O)(=O)C3CC3)cc2)C[C@@H]1C1CCCCC1 ?
(A) True
